# Tested on: K562 CRISPRi cells
# test: Perturb-seq pooled growth measurement (sgRNA counts, growth phenotype γ, relative activity)
# Format: cell-based, human
# condition: pooled growth phenotype γ of the Perturb-seq sgRNA, day 5, K562 CRISPRi cells
# Description: Finally, we sought to use intermediate-activity sgRNAs to explore relationships between expression levels of various genes and the resulting cellular phenotypes. […] In addition to the single-cell transcriptomes, we measured bulk growth phenotypes conferred by sgRNAs in these cells. […]
Some substances, each annotated with its measured gamma_day5.
When you answer, write just the number.

HSPE1_ + _198365089.23-P1P2_01 (guide GGAGACACGCAGTCCGGCCC; listed as DNA, chemistry not fully specified)
−0.616
POLR2H_ + _184081251.23-P1P2_11 (guide GGGGCCACGAGAGCAGCGGA; listed as DNA, chemistry not fully specified)
−0.9966
GINS1_ −_25388381.23-P1P2_03 (guide GGACTATAACGAAAGGAGTG; listed as DNA, chemistry not fully specified)
−0.7467
CDC23_ −_137548987.23-P1P2_08 (guide GACAGCCATCGGGACCATGG; listed as DNA, chemistry not fully specified)
−0.9559
MTOR_ + _11322547.23-P1P2_07 (guide GGGCAGGGGGTCTGAAGCGG; listed as DNA, chemistry not fully specified)
−0.5893

Shifting focus to the substance that follows.
Ask: Report the value of gamma_day5 obtained on K562 CRISPRi cells for CAD_ + _27440280.23-P1P2_13 (guide GGCTGGAGAGAAGCCTGGCG; listed as DNA, chemistry not fully specified) .
Reply: −0.1861
